The reader will find Ki measurements below, all made with cloned human NMB-preferring receptor (BB1) (Homo sapiens).
Sequence (P28336 whole entry): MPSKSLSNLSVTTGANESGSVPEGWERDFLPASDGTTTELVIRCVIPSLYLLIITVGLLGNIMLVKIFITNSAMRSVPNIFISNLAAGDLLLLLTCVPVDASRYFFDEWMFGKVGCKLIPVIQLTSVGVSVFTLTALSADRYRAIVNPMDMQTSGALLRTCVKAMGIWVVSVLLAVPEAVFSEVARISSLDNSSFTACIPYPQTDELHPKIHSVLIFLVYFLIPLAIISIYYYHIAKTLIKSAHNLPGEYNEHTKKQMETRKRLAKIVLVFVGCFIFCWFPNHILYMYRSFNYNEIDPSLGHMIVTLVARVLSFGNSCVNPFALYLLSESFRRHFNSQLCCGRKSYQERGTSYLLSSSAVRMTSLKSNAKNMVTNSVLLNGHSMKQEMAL
measuredEndpoint: Ki (µM)

Guide cases for Ki, answers given:
{"columns": ["compound", "scaleUnit", "Ki"],
 "data": [
  ["CC(C)c1cccc(C(C)C)c1NC(=O)N(C)C(Cc1c[nH]c2ccccc12)C(=O)NCC1CCCCC1 (stereo not drawn) [Example 10]", "µM", 0.758],
  ["CC(Cc1c[nH]c2ccccc12)(NC(=O)Nc1ccc([N+](=O)[O-])cc1)C(=O)NCC1CCCCC1 (stereo not drawn) [Example 8]", "µM", 0.003]
]}

a: CC(C)c1cccc(C(C)C)c1NC(=O)N[C@](C)(Cc1c[nH]c2ccccc12)C(=O)N[C@H]1CCCC[C@H]1c1ccccc1 [Example 6]
b: CC(C)c1cccc(C(C)C)c1NC(=O)NC(Cc1c[nH]c2ccccc12)C(=O)N(C)CC1CCCCC1 (stereo not drawn) [Example 7]
c: CCOC(=O)c1ccc(NC(=O)N[C@@](C)(Cc2c[nH]c3ccccc23)C(=O)NCC2(c3ccccn3)CCCCC2)cc1 [Example 16]
Put the items in order so that reported Ki rises from first to last. Answer by listing the labels in the order asked for.
c, b, a
(c: 0.003 µM, b: 0.487 µM, a: 0.783 µM)

Ref: patent US6194437A
